Catalogue of pIC50 values
# target.or.system: human Her2 exon 20 insertion mutation YVMA (Homo sapiens, UniProt P04626, INS775YVMA)
# Construct: expressed in transfected cells; host or cells: NIH-3T3, lentiviral transduction, puromycin selection
# Sequence (P04626 with tags, fused parts or gaps INS775YVMA): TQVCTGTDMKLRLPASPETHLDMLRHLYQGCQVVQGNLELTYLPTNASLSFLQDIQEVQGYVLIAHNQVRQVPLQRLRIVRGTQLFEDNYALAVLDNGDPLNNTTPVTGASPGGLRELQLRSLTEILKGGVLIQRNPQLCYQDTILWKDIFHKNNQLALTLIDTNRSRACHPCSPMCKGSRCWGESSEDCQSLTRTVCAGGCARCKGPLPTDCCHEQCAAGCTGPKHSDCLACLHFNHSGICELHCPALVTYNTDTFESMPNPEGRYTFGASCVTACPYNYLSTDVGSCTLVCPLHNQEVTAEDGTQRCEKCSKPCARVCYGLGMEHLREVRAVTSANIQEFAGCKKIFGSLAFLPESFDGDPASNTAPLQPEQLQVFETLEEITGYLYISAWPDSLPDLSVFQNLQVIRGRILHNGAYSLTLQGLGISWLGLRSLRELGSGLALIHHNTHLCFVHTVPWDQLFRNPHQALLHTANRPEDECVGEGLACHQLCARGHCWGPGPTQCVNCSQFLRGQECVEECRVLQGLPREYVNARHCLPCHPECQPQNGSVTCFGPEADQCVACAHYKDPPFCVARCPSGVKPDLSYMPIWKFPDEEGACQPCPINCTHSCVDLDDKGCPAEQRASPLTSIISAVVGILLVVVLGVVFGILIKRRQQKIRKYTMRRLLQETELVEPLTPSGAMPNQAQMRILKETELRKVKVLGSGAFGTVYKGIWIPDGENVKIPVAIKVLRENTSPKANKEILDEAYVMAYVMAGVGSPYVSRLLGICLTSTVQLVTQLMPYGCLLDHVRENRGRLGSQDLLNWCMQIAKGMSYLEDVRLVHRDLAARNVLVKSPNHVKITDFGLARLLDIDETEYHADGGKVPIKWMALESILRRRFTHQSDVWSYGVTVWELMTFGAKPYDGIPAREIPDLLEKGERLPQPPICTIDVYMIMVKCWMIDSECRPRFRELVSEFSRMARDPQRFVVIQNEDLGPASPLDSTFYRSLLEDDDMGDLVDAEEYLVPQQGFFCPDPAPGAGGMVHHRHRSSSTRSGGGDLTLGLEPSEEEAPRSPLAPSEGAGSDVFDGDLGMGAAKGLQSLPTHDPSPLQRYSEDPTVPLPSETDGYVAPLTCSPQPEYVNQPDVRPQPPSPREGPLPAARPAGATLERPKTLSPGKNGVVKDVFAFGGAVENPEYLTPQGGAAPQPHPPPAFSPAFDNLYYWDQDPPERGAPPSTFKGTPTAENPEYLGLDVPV
# experiment.notes: Her2 Exon 20 YVMA insertion cellular phosphorylation inhibition (MSD p-Her2 Y1248/total Her2);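 note: lentivirally transduced NIH-3T3 cells in 1% FBS medium, electrochemiluminescent MSD read-out, graded compound concentrations at 37 °C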
# Type: cell-based
# stated.conditions: Her2 YVMAins cells, 4 h compound
// pIC50 is dimensionless: -log10 of concentration (M)

molecule	pIC50
C=CC(=O)Nc1cc(Nc2ncnc(Nc3cc(F)c(C4CC4)cc3C(C)(C)O)n2)c(OC)cc1N1CCC[C@@H]1CN(C)C	8.77

(Q) For human Her2 exon 20 insertion mutation YVMA (Homo sapiens, UniProt P04626, INS775YVMA), provide pIC50 of `C=CC(=O)Nc1cc(Nc2ncnc(Nc3cc(Cl)c(F)cc3C(C)(C)O)n2)c(OC)cc1N1CC(CN(C)C)C1` please.
(A) 7.88

(Q) Identify the measured pIC50 of `C=CC(=O)Nc1cc(Nc2ncnc(Nc3cc(Cl)c(F)cc3C(C)(C)O)n2)c(OC)cc1N1CC[C@@H](NC)C1` for human Her2 exon 20 insertion mutation YVMA (Homo sapiens, UniProt P04626, INS775YVMA).
(A) 7.91

(Q) // map `C=CC(=O)Nc1cc(Nc2ncnc(Nc3cc(Cl)c(F)cc3C(C)(C)O)n2)c(OC)cc1N(C)CCN1CCC[C@@H]1C` to recorded pIC50 (system: human Her2 exon 20 insertion mutation YVMA (Homo sapiens, UniProt P04626, INS775YVMA))
(A) 7.47

(Q) Form: Entry = Cc1cc(C(=O)Nc2nc3cccc(Cl)c3n2[C@@H]2CCCCN(C(=O)/C=C/CN(C)C)C2)ccn1 [EGF816, reference compound] | System = human Her2 exon 20 insertion mutation YVMA (Homo sapiens, UniProt P04626, INS775YVMA) | pIC50 = ____
(A) 6.93

(Q) // lookup pIC50 | system=human Her2 exon 20 insertion mutation YVMA (Homo sapiens, UniProt P04626, INS775YVMA) | key= `C=CC(=O)Nc1cc(Nc2ncnc(Nc3cc(Cl)c(F)cc3C(C)(C)O)n2)c(OC)cc1N(C)CCN1CCCC1`
(A) 8.12

(Q) Observed pIC50 on human Her2 exon 20 insertion mutation YVMA (Homo sapiens, UniProt P04626, INS775YVMA) for `C=CC(=O)Nc1cc(Nc2ncnc(Nc3cc(Cl)c(F)cc3C(C)(C)O)n2)c(OC)cc1N1CC[C@@H]1CN(C)C` , please.
(A) 8.03

----------
# target.or.system: human EGFR exon 20 V769_D770insASV (Homo sapiens, UniProt P00533, INS769ASV)
# Sequence (P00533 with tags, fused parts or gaps INS769ASV): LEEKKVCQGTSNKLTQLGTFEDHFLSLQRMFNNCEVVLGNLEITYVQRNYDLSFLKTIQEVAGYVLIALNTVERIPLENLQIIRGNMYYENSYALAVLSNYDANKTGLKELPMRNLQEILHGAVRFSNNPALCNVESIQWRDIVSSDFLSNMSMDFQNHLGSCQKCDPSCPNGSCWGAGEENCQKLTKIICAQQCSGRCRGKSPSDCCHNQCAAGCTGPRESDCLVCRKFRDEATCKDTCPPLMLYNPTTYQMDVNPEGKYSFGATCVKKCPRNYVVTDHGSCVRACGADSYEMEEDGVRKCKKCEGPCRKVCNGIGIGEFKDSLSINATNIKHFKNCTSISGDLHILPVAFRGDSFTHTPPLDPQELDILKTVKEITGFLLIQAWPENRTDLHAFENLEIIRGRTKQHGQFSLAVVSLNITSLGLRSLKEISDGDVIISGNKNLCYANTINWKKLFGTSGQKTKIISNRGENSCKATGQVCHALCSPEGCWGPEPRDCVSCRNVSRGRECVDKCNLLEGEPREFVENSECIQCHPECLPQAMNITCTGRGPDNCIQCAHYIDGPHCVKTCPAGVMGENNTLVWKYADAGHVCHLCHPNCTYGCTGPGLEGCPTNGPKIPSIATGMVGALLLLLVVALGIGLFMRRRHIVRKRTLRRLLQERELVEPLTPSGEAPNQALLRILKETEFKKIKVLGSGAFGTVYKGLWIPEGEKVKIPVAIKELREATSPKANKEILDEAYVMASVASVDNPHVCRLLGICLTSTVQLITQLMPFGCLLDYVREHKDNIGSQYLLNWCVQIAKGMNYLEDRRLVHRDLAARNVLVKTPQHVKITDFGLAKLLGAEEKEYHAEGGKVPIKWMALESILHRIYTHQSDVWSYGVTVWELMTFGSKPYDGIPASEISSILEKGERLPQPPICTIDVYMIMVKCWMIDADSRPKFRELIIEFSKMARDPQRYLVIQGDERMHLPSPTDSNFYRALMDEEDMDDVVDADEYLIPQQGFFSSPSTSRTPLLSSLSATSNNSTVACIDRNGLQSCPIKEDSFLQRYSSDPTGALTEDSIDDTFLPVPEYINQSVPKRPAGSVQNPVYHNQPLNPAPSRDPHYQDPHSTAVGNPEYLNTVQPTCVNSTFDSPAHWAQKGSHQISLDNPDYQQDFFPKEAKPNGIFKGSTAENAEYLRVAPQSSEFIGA
# experiment.notes: EGFR Exon20 ASV insertion cellular phosphorylation inhibition (MSD pEGFR Y1068/total EGFR);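 note: electrochemiluminescent readout on an MSD SECTOR Imager, IL3-independent transduced cells in medium with 1% FBS, compound concentration series at 37 °C and 5% CO2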
# stated.conditions: Ba/F3 EGFR ASV ins cells, 4 h compound, p-EGFR(Y1068)/total EGFR
pIC50: −log10 of the molar value. Structures can show the parent of a compound that is named as a salt.
# cutoff 8 applies to pIC50; >= gives Fulfilled, < gives Not fulfilled

Please review the entries below; each comes with its answer.
molecule	discrete.label
C=CC(=O)Nc1cc(Nc2ncnc(Nc3cc(F)c(F)cc3C(C)(C)O)n2)c(OC)cc1N1CCOC[C@@H]1CN(C)C [Compound 35]	Fulfilled
C=CC(=O)Nc1cc(Nc2ncnc(Nc3cc(Cl)c(F)cc3C(C)(C)O)n2)c(OC)cc1N1CCC[C@@H]1CN(C)C [Compound 31]	Fulfilled
C=CC(=O)Nc1cc(Nc2ncnc(Nc3cc(Cl)c(F)cc3C(C)(O)CC)n2)c(OC)cc1N1CC[C@@H](N(C)C)C1 (single isomer, unassigned) [Compound 69]	Not fulfilled
C=CC(=O)Nc1cc(Nc2nccc(Nc3cc(Cl)c(F)cc3C(C)(C)O)n2)c(OC)cc1N1C[C@H]2CN(C)[C@H]2C1 [Compound 89, formic acid salt]	Not fulfilled

(Q) Quick check, pIC50 >= 8? C=CC(=O)Nc1cc(Nc2nccc(Nc3cc(Cl)c(F)cc3C(C)(C)O)n2)c(OC)cc1N1CC[C@@H]1CN(C)C [Compound 53]
(A) Not fulfilled

(Q) Say whether C=CC(=O)Nc1cc(Nc2nccc(Nc3cc(Cl)c(F)cc3C(C)(C)O)n2)c(OC)cc1N1C[C@@H](C)C[C@@H]1CN(C)C [Compound 91] shows pIC50 of 8 or more.
(A) Not fulfilled

(Q) Check if pIC50 >= 8 (inclusive). Item: C=CC(=O)Nc1cc(Nc2ncnc(Nc3cc(F)c(Cl)c(F)c3C(C)(C)O)n2)c(OC)cc1N(C)CCN(C)C [Compound 16]
(A) Not fulfilled
